assay.name: NCI Yeast Anticancer Drug Screen. Data for the rad52 strain (AID 147);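 note: 0% = growth of vehicle-treated control cultures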
condition.info: S. cerevisiae rad52 mutant growth inhibition; at 100.0 µM; active compounds read high
This is part of a sample that, as a whole, favours compounds with a hit. Of some 79,000 tested, about 15% had one in any assay.
# reported growth inhibition; entries follow
Numbers only here, please. The scale is %.

Use these answered entries as a reference point.
compound: CC1OCC2OC(C)OC(C3C4=C(CC(C)(C)CC4=O)OC4=C3C(=O)CC(C)(C)C4)C2O1 (configuration not stated)
growth inhibition / %: 56
//
compound: OC1(c2ccccc2)CSC2=Nc3ccccc3C3CCN1N23 (configuration not stated)
growth inhibition / %: 91
//
compound: CCC(=O)OCCn1c2nc(=O)[nH]c(=O)c-2nc2cc(C)c(C)cc21
growth inhibition / %: 0

In plain terms, Cc1ccc(C2C(Cl)C(=O)N2n2cnc3ccccc3c2=O)cc1 (configuration not stated) has a documented growth inhibition of -8

// sample C[C@H](CCC(=O)NN)[C@H]1CC[C@H]2[C@@H]3CC[C@@H]4C[C@H](O)CC[C@]4(C)[C@H]3CC[C@]12C , its growth inhibition was 10

Sure, the documented growth inhibition for Cc1cc(O)cc(O)c1N=Nc1ccc([N+](=O)[O-])cc1 is 32

# growth inhibition of O=[N+]([O-])c1cccc([N+](=O)[O-])c1S(=O)(=O)c1ccccc1 = 97

* * *

// growth inhibition lookup, one value per entry
assay.name: NCI Yeast Anticancer Drug Screen. Data for the wt2 strain (AID 169);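 note: 0% = growth of vehicle-treated yeast cultures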
condition.info: S. cerevisiae wt2 strain growth inhibition; at 1.2 µM; active compounds read high
Protocol: Growth inhibition of yeast strains with defined genetic alterations is measured as a screen for potential anti-cancer activity. Selected strains with alterations in DNA damage repair or cell cycle control were exposed to compounds and growth inhibition was measured relative to vehicle treated controls. The strain used in this assay is wt2
This is part of a sample that, as a whole, favours compounds with a hit. Of some 79,000 tested, about 15% had one in any assay. Calls of active or inactive are those of the source. No stated cut-off is given here; in the data, active means growth inhibition above about 70%; inactive means the rest.

molecule: O=C1OC(CCl)CN1/N=C/c1ccc([N+](=O)[O-])o1 (configuration not stated)
readout.value: 2% (inactive)
--
molecule: O=CNc1ccc2c(c1)C(=O)c1ccccc1-2
readout.value: -2% (inactive)
--
molecule: COc1ccc2c(c1)C(=O)c1ccccc1C2
readout.value: -1% (inactive)
--
molecule: CC(C)(CN1CCCCC1)C(=O)CC(SCCS(=O)(=O)O)c1ccc(Br)cc1 (configuration not stated)
readout.value: 1% (inactive)
--
molecule: COc1ccc(O)c(/C=N\Nc2ccccc2)c1
readout.value: 3% (inactive)
--
molecule: Cc1ccc(C2C(Cl)C(=O)N2n2cnc3ccccc3c2=O)cc1 (configuration not stated)
readout.value: -15% (inactive)
--
molecule: O=C(OCCN1CCCCCC1)C(c1ccsc1)C1CCCCC1 (configuration not stated)
readout.value: 6% (inactive)
--
molecule: N#CSc1ccc(S(N)(=O)=O)cc1
readout.value: -48% (inactive)
--
molecule: O=[N+]([O-])c1cc2no[n+]([O-])c2cc1N1CCCCC1
readout.value: 0% (inactive)
--
molecule: O=C(NCCCCNCCCNC(=O)c1cc(-c2ccccc2)nc2ccccc12)c1cc(-c2ccccc2)nc2ccccc12
readout.value: 2% (inactive)

What the record says about COc1cc(C2c3cc4c(cc3OC(NNc3ccccc3)C2C)OCO4)cc(OC)c1OC (configuration not stated) : growth inhibition is -2% (inactive)

Given item COc1cc2c(cc1[N+](=O)[O-])C(=O)C(Br)(Br)CCC2 , the value recorded as its growth inhibition is 6% (inactive)
